assay: Animal Experiment: serum concentration and bioavailability of OMP in rabbits (I.V., oral, rectum); assay type: in vivo, albino rabbits; settings: rabbit, in vivo, po, 10 mg/kg, BA (bioavailability), average
quantity: bioavailability

bioavailability recorded for this molecule, COc1ccc2[nH]c([S+]([O-])Cc3ncc(C)c(OC)c3C)nc2c1 (stereo not shown) , is 17%

* * *

Assay: Animal Experiment: serum concentration and bioavailability of OMP in rabbits (I.V., oral, rectum)
Type: in vivo, albino rabbits
Details: rabbit, serum, iv, 10 mg/kg, I.V., 20 mg OMP per 2 kg, 30 min, average; read-out: serum concentration, average
Experimental: Using the same method as in Reference 1, one composition using water-Soluble base was manufactured by the following formula; 20 mg OMP. 10 mg arginine and 970 mg PEG 4000, and another composition using lipid-soluble base was manufactured by the following formula; 20 mg OMP, 10 mg arginine and 970 mg Witepsol H-15. Object: 36 male healthy albino rabbits weighing 1.5-2.3 kg. […]
quantity: concentration at 0.5 h (ng/mL)
Enter your answer as a number in ng/mL; do not include the unit.

concentration at 0.5 h recorded for this compound, COc1ccc2[nH]c([S+]([O-])Cc3ncc(C)c(OC)c3C)nc2c1 (stereo not shown) , is 16700

* * *

test: Animal Experiment: serum concentration and bioavailability of OMP in rabbits (I.V., oral, rectum); format: in vivo, albino rabbits; details: rabbit, serum, iv, 10 mg/kg, I.V., 20 mg OMP per 2 kg, 15 min, individual animals; read-out: serum concentration
quantity: concentration at 0.25 h (ng/mL)
Enter your answer as a number in ng/mL; do not include the unit.

concentration at 0.25 h recorded for this compound, COc1ccc2[nH]c([S+]([O-])Cc3ncc(C)c(OC)c3C)nc2c1 (stereo not shown) [OMP, Omeprazole] , is 26400

* * *

experiment: Animal Experiment: serum concentration and bioavailability of OMP in rabbits (I.V., oral, rectum); format: in vivo, albino rabbits; conditions: rabbit, serum, po, 10 mg/kg, 20 mg OMP per 2 kg, 11 hr, average
quantity: concentration at 11 h (ng/mL)
Enter your answer as a number in ng/mL; do not include the unit.

concentration at 11 h recorded for this compound, COc1ccc2[nH]c([S+]([O-])Cc3ncc(C)c(OC)c3C)nc2c1 (stereo not shown) , is 102
